Target: Nuclear receptor coactivator 2 (Homo sapiens) (UniProt Q15596)
Sequence (Q15596 whole entry, looked up): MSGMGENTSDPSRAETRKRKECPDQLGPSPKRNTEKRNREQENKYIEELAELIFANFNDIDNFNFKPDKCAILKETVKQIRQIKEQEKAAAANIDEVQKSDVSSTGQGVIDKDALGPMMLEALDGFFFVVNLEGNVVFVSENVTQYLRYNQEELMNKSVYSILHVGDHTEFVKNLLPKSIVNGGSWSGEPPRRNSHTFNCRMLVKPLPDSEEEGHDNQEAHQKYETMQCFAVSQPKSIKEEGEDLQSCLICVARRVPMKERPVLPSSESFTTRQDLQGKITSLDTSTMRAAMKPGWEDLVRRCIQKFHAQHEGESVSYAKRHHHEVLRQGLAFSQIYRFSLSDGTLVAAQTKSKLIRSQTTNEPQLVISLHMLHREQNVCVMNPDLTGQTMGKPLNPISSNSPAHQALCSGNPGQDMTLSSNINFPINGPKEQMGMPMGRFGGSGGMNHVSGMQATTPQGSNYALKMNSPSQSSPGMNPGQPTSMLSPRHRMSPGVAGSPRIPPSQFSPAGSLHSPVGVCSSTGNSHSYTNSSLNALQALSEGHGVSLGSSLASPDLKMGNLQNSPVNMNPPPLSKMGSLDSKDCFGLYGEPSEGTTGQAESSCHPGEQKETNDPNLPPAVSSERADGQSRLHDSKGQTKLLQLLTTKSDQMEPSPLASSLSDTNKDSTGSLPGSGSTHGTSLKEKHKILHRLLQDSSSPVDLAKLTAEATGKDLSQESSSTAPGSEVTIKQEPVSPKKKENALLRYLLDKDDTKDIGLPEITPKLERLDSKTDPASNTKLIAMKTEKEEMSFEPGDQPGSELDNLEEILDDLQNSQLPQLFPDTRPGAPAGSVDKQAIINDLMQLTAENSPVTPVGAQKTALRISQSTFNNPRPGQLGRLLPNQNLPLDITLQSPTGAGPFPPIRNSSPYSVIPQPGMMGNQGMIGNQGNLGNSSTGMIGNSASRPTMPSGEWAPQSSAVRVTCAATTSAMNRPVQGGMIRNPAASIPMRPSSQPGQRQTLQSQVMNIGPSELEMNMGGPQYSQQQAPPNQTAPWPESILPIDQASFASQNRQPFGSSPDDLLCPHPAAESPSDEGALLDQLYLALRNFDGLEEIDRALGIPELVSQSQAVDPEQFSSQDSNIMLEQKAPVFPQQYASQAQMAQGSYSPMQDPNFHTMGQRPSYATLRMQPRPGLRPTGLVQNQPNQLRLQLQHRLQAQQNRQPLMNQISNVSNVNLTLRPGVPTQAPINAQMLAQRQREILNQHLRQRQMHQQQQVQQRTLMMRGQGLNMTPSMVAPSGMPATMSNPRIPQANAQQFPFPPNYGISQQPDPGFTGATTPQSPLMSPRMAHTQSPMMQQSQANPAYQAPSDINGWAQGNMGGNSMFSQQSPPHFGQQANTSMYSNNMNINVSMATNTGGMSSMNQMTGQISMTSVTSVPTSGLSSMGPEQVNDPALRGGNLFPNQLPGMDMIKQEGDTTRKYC
Assay: SRC2 coactivator transcriptional activity inhibitors, confirmation, cell-based, luminescence, HEK293, triplicate (AID 652008)
Conditions: HEK293 GAL4-SRC2 luciferase reporter, at 8.9 µM, active compounds read high
Range-based classes on measured inhibition: range A (below 20%), range B (20% to below 50%), range C (50% or more)

# COMPOUND, ASSIGNED_LABEL
records = [
    ("COCCn1c(SCC(=O)/C=C2\\N(C)c3ccccc3C2(C)C)nnc1-c1ccncc1", "range A"),
    ("N/C(=N\\OC(=O)c1ccc(Cl)cc1Cl)c1ccccn1", "range A"),
    ("CCN(CC)S(=O)(=O)c1ccc(Cl)c(NC(=O)COc2ccc(OC)cc2[N+](=O)[O-])c1", "range A"),
    ("Cc1nc([N+](=O)[O-])c(Sc2nc3ccccc3n2C)n1Cc1ccccc1", "range B"),
    ("Cc1cc(C)c(C#N)c(SCc2nnc(-c3ccccc3)o2)n1", "range C"),
    ("O=C(CCCN1C(=O)/C(=C/c2ccccc2Cl)SC1=S)NNC(=O)c1ccccc1Cl", "range C"),
    ("Cc1cccc(C)c1NS(=O)(=O)c1ccc(-c2cnc(C3CC3)o2)cc1", "range A"),
    ("CCC(C)c1ccc(C(C)NC(=S)NC2CCCCC2)cc1 (stereo unspecified)", "range B"),
    ("Cc1ccc(S(=O)(=O)N2CCC(C(=O)Nc3ccc(S(=O)(=O)N4CCOCC4)cc3)CC2)cc1", "range B"),
    ("Cc1cc(C2=NNC(=NC3CC3)SC2)c(C)n1-c1ccccc1", "range C"),
    ("COc1ccc(NS(=O)(=O)c2ccc3c(c2)OCCO3)cc1OC", "range B"),
    ("COCc1cc(C)[nH]c(=O)c1C(=O)NC12CC3CC(CC(C3)C1)C2", "range A"),
    ("Cc1cc(N2CCOCC2)c2c(N)c(Br)cc(C)c2n1", "range C"),
    ("CC(=O)NC(c1cccc([N+](=O)[O-])c1)c1ccc2cccnc2c1O (stereo unspecified)", "range B"),
    ("CCC(=O)Nc1ccc(NCc2ccc(-c3ccccc3)cc2)cc1", "range A"),
    ("CCN(c1cccc(C)c1)c1ncnc2nc[nH]c12", "range B"),
    ("COc1cccc(/C=C2\\SC(=S)N(CCCC(=O)N3CCCCC3CCO)C2=O)c1 (stereo unspecified)", "range C"),
    ("O=c1[nH][nH]c(-c2ccccc2O)c1C(C[N+](=O)[O-])c1ccc(Br)cc1 (stereo unspecified)", "range A"),
    ("CC(C)(C)c1ccc(C(=O)CCC(=O)OCC(=O)NCCc2ccc(S(N)(=O)=O)cc2)cc1", "range B"),
    ("Cc1ccc([C@@H]2C[C@H]3[C@@H](CN2S(=O)(=O)c2ccc(C)cc2)C(=O)C[C@@H](c2ccccc2F)N3S(=O)(=O)c2ccc(C)cc2)cc1", "range A"),
]

----------
Target: Steroidogenic factor 1 (Homo sapiens) (UniProt Q13285)
Sequence (Q13285 whole entry, looked up): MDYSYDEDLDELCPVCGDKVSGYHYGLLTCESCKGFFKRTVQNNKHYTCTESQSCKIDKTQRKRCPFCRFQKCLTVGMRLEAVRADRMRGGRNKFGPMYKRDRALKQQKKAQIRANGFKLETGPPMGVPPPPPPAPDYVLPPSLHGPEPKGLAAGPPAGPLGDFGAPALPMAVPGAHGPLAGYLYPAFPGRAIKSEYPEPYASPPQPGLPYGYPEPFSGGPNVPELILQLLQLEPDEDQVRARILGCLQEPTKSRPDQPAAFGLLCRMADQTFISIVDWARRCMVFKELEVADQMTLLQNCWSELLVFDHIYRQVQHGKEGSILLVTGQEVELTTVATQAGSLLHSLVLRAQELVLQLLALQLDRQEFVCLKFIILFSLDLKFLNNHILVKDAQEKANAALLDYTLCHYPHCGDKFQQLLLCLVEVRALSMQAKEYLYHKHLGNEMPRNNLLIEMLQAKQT
Assay: SF1 (NR5A1) inverse agonists, counter-screen for LRH-1 inverse agonist project, cell-based, luminescence, high throughput (AID 651614);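 further: cells cotransfected with StAR promoter reporter and SF1 expression vector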
Settings: cell-based SF1 luciferase reporter, at 3.6 µM
Active and inactive are the calls of the source. Cut-off read from the data, not from the text of the source: active = inhibition above about 44%; inactive = the rest.
Labels: active, inactive

# COMPOUND, TESTED_ON, ASSIGNED_LABEL
measured = [
    ("Cc1c(C(=O)NC(C)c2ccncc2)oc2ccccc12 (stereo not given)", "Steroidogenic factor 1 (Homo sapiens) (UniProt Q13285)", "active"),
    ("COc1ccc2c(c1)[nH]c1c(N3CCN(Cc4ccc5c(c4)OCO5)CC3)ncnc12", "Steroidogenic factor 1 (Homo sapiens) (UniProt Q13285)", "active"),
    ("COc1ccc(CC2C(=O)NC(C)C(=O)N(C)C3Cc4ccc(cc4)Oc4cc(ccc4O)CC(C(=O)NC(C)C(=O)NC(C)C(=O)N2C)N(C)C3=O)cc1 (stereo not given)", "Steroidogenic factor 1 (Homo sapiens) (UniProt Q13285)", "active"),
    ("Cc1c(NC(=O)c2ccc([N+](=O)[O-])o2)cccc1-c1nc2ncccc2o1", "Steroidogenic factor 1 (Homo sapiens) (UniProt Q13285)", "active"),
    ("Cc1nn(CC(=O)NCCC2=CCCCC2)c(C)c1[N+](=O)[O-]", "Steroidogenic factor 1 (Homo sapiens) (UniProt Q13285)", "inactive"),
    ("O=C1OC(Nc2cc(Br)cc3cccnc23)c2ccccc21 (stereo not given)", "Steroidogenic factor 1 (Homo sapiens) (UniProt Q13285)", "inactive"),
    ("CCCCCCCCCC[n+]1cccc2c3ccccc3ccc21", "Steroidogenic factor 1 (Homo sapiens) (UniProt Q13285)", "active"),
    ("Cc1ccc(CSC(Nc2ccc(F)cc2)=C(C#N)C#N)cc1", "Steroidogenic factor 1 (Homo sapiens) (UniProt Q13285)", "active"),
    ("Cc1ccc(CNC(=O)CN2C(=O)NC3(CCCC3)C2=O)cc1", "Steroidogenic factor 1 (Homo sapiens) (UniProt Q13285)", "active"),
    ("Cc1ccc(Cl)cc1NC(=O)COC(=O)CC(C)(C)C", "Steroidogenic factor 1 (Homo sapiens) (UniProt Q13285)", "active"),
]
